Values were extracted from patent US20140005163A1.

Items are presented alongside their recorded IC50.
- measurement.target: PI3K beta (Homo sapiens, UniProt P42338)
- Construct: for the full-length p110-b subunit are generated and fused by overlapping PCR; p85(iSH2) fusion partner (see partner chain) (N); His tag (C); Tn5 (Trichoplusia ni) or TiniPro insect cells
- Sequence (P42338 with tags, fused parts or gaps limits assumed): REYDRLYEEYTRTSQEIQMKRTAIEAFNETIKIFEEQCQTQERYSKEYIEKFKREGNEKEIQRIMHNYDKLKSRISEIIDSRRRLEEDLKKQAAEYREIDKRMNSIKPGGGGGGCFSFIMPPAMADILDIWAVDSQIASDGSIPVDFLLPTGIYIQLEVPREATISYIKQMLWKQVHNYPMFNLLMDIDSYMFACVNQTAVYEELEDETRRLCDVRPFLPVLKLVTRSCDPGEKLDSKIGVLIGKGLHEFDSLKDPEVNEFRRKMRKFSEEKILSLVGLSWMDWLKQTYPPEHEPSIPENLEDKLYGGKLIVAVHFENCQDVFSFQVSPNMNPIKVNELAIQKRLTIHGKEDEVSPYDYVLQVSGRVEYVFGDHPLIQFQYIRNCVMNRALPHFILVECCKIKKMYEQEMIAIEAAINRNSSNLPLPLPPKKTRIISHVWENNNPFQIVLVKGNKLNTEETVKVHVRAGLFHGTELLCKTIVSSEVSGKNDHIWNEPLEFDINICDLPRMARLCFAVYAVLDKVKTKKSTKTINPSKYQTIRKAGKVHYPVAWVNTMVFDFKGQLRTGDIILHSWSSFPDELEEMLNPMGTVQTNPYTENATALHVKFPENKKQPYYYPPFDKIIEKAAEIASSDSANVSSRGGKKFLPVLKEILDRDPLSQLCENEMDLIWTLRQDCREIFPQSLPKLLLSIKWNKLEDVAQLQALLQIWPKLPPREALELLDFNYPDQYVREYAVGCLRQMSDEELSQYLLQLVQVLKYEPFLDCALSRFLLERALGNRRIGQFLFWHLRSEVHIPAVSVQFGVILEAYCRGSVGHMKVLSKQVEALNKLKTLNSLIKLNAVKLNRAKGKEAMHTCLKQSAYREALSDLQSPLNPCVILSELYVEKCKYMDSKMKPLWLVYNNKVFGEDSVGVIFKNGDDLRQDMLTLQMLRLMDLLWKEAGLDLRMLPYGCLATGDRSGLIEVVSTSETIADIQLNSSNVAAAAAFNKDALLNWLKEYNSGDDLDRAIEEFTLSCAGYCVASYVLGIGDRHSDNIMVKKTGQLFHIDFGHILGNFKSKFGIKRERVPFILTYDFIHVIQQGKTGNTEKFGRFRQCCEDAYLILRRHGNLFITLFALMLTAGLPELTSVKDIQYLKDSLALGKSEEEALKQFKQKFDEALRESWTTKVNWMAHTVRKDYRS
- test.description: PI3K beta kinase assay (Kinase-Glo luminescence)
Enter your answer as a number in nM; do not include the unit.

Before answering, review these 4 worked examples.
Cc1nn(C)cc1-n1c(=O)n(C)c2cnc3ccc(-c4ccc5c(c4)CC(=O)N5)cc3c21 : 506
COCCn1nc(C)c(-n2c(=O)n(C)c3cnc4ccc(-c5cncc(NC(C)C)c5)cc4c32)c1C : 327
CCOc1ccc(-c2ccc3ncc4c(c3c2)n(-c2c(C)nn(CCOC)c2C)c(=O)n4C)cn1 : 473
CNc1ncc(-c2ccc3ncc4c(c3c2)n(-c2cn(C)nc2C)c(=O)n4C)cc1F : 142

If you can, please state the reported IC50 value of CCNC(=O)c1cc(-c2ccc3ncc4c(c3c2)n(-c2cn(C)nc2C)c(=O)n4C)cnc1NC .
67

# input compound: CCn1cc(-n2c(=O)n(C)c3cnc4ccc(-c5ccc(OC)c(OC)c5)cc4c32)c(C)n1 ; wanted: its IC50
43

Reported IC50 for COc1ccc(-c2ccc3ncc4[nH]c(=O)n(-c5cn(C)nc5C)c4c3n2)cc1OC : what is it?
33
